Recorded koff, one value per entry.
target: T1, human VEGF-A residues 27-191 of Accession #AAV38412 (human, UniProt P15692 27-191); test: BIAcore SPR
T1 construct: range 27-191
T1 sequence (P15692 other isoform, or with tags, fused parts or gaps limits assumed): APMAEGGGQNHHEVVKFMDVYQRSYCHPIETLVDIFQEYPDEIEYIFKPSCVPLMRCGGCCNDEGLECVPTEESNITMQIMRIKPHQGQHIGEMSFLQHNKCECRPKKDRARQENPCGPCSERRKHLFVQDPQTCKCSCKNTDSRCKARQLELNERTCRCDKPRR

>  <BINDER>
T28 Y (anti-VEGF IgG) (antibody, V domains shown, copies: 2 + 2) VH: EVQLVESGGGLVQPGGSLRLSCAASGYYFTNYGMNWVRQAPGKGLEWVGWINTYTGEPTYAADFKRRFTFSLDTSKSTAYLQMNSLRAEDTAVYYCAKYPHYYGSSHWYFDVWGQGTLVTVSS VL: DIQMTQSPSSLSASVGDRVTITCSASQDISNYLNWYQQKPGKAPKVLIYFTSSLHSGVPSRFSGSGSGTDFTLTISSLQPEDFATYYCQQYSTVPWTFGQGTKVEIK

>  <UNIT_NAME>
s⁻¹

>  <koff>
6.32e-05

$$$$
>  <BINDER>
T30 W (anti-VEGF IgG) (antibody, V domains shown, copies: 2 + 2) VH: EVQLVESGGGLVQPGGSLRLSCAASGYTFWNYGMNWVRQAPGKGLEWVGWINTYTGEPTYAADFKRRFTFSLDTSKSTAYLQMNSLRAEDTAVYYCAKYPHYYGSSHWYFDVWGQGTLVTVSS VL: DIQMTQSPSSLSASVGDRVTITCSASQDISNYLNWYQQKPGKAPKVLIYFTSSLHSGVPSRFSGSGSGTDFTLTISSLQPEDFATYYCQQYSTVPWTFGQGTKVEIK

>  <UNIT_NAME>
s⁻¹

>  <koff>
5.74e-05

$$$$
>  <BINDER>
T30 N (anti-VEGF IgG) (antibody, V domains shown, copies: 2 + 2) VH: EVQLVESGGGLVQPGGSLRLSCAASGYTFNNYGMNWVRQAPGKGLEWVGWINTYTGEPTYAADFKRRFTFSLDTSKSTAYLQMNSLRAEDTAVYYCAKYPHYYGSSHWYFDVWGQGTLVTVSS VL: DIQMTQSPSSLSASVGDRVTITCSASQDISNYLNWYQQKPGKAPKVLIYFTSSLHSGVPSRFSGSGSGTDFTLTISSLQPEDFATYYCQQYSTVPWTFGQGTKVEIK

>  <UNIT_NAME>
s⁻¹

>  <koff>
5.14e-05

$$$$
>  <BINDER>
S100a G (anti-VEGF IgG) (antibody, V domains shown, copies: 2 + 2) VH: EVQLVESGGGLVQPGGSLRLSCAASGYTFTNYGMNWVRQAPGKGLEWVGWINTYTGEPTYAADFKRRFTFSLDTSKSTAYLQMNSLRAEDTAVYYCAKYPHYYGGSHWYFDVWGQGTLVTVSS VL: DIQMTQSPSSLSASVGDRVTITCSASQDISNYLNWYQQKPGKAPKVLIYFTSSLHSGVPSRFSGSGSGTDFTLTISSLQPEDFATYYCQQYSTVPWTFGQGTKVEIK

>  <UNIT_NAME>
s⁻¹

>  <koff>
0.000133

$$$$
